Reference source for all entries: ChEMBL document CHEMBL3588826

test system: Mus musculus; experiment: Anticonvulsant activity in ip dosed albino Carworth Farms No. 1 mouse measured at 0.25 hrs by maximal electroshock seizure test; assay type: functional; conditions: Carworth Farms No. 1, ip
Would you mind telling me the reported ED50 of each entry?
Give the number; mg/kg is assumed, so skip it.

Form: molecule = COC[C@@H](NC(C)=O)C(=O)NCc1ccc(Oc2cccc(OC)c2)cc1 ; ED50 = 13

The reported value for COC[C@@H](NC(C)=O)C(=O)NCc1ccc(Oc2cccc(F)c2)cc1 in terms of ED50 is 5.5

For record COC[C@@H](NC(C)=O)C(=O)NCc1ccc(Oc2cccc(C)c2)cc1 the listed ED50 is 14

Recorded result, CCCC(CCC)C(=O)O , ED50: 270

# ED50 (molecule: COC[C@@H](NC(C)=O)C(=O)NCc1ccc(Oc2cccc(OC(F)(F)F)c2)cc1 ) is 6.5
